Source: paper PMC9051106

# TGT: wildtype rat TRPV2 (Rattus norvegicus, UniProt Q9WUD2)
# Sequence (Q9WUD2 1-761): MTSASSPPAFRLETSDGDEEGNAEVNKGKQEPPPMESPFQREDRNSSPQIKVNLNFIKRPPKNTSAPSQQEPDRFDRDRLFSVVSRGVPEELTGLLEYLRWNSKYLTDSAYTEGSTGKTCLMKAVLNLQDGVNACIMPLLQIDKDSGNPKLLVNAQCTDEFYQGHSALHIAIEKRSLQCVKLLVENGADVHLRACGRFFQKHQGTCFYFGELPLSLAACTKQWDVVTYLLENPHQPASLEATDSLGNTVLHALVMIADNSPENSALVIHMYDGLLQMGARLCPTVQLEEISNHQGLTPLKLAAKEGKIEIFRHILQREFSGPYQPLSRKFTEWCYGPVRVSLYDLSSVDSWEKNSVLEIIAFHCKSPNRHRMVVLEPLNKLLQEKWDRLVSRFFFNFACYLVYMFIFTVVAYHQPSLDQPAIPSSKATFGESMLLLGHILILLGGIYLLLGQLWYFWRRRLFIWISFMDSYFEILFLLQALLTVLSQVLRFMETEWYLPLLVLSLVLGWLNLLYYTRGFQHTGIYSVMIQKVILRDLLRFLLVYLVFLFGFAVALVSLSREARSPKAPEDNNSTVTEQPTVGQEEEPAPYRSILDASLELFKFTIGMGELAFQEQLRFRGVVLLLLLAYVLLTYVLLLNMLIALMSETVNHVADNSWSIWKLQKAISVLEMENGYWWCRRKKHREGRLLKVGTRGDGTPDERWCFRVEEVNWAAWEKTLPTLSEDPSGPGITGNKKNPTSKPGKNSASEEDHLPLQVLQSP
# PROTOCOL CONDITIONS: wildtype rat TRPV2, HEK293T, held at −60 mV, mean ± S.E.M.
MEASURE: EC50 (µM)
Answers are plain numbers, in µM.

Hello, please tell me recorded EC50 for this one: NCCOB(c1ccccc1)c1ccccc1 [2-APB, 2-aminoethoxydiphenyl borate]
322

---

# TGT: His521Asn rat TRPV2 (Rattus norvegicus, UniProt Q9WUD2, H521N)
# PROTOCOL CONDITIONS: HEK293T, held at −60 mV
MEASURE: pEC50
One number for each entry, as −log10 of the molar value.

Hello, please tell me recorded pEC50 for this one: NCCOB(c1ccccc1)c1ccccc1 [2-APB, 2-aminoethoxydiphenyl borate]
3.13

---

# TGT: Arg535Lys rat TRPV2 (Rattus norvegicus, UniProt Q9WUD2, R535K)
# PROTOCOL CONDITIONS: HEK293T, held at −60 mV, mean ± S.E.M.
MEASURE: pEC50
One number for each entry, as −log10 of the molar value.

Hello, please tell me recorded pEC50 for this one: NCCOB(c1ccccc1)c1ccccc1 [2-APB, 2-aminoethoxydiphenyl borate]
4.10

---

# TGT: His521Ala rat TRPV2 (Rattus norvegicus, UniProt Q9WUD2, H521A)
# PROTOCOL CONDITIONS: HEK293T, held at −60 mV, mean ± S.E.M.
MEASURE: pEC50
Answers are plain numbers, as −log10 of the molar value.

Hello, please tell me recorded pEC50 for this one: NCCOB(c1ccccc1)c1ccccc1 [2-APB, 2-aminoethoxydiphenyl borate]
3.00

---

# TGT: His521Ala/Arg539Lys rat TRPV2 (Rattus norvegicus, UniProt Q9WUD2, H521A/R539K)
# PROTOCOL CONDITIONS: His521Ala/Arg539Lys, HEK293T, held at −60 mV, mean ± S.E.M.
MEASURE: pEC50
Give bare numbers, as −log10 of the molar value.

Hello, please tell me recorded pEC50 for this one: NCCOB(c1ccccc1)c1ccccc1 [2-APB, 2-aminoethoxydiphenyl borate]
2.76

---

# TGT: Arg539Lys rat TRPV2 (Rattus norvegicus, UniProt Q9WUD2, R539K)
# PROTOCOL CONDITIONS: Arg539Lys, HEK293T, held at −60 mV, mean ± S.E.M.
MEASURE: EC50 (µM)
Numbers only, in µM.

Hello, please tell me recorded EC50 for this one: NCCOB(c1ccccc1)c1ccccc1 [2-APB, 2-aminoethoxydiphenyl borate]
683
